- system-under-test: α-melanocyte-stimulating hormone receptor (hMC4R) (Homo sapiens (Human), UniProt P32245)
- Sequence (P32245 whole entry): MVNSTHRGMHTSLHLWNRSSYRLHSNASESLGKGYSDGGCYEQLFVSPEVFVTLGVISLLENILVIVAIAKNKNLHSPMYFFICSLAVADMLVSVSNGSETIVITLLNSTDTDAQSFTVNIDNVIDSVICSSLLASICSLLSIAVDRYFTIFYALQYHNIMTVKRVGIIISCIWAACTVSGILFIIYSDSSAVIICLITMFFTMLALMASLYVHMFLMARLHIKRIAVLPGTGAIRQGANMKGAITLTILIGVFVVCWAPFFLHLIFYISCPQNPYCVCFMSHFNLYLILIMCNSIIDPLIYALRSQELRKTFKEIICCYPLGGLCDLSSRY
- measurement-protocol: In vitro binding affinity assay using hMC4R (radioligand competition binding, [125I]-(Nle4, D-Phe7)-α-MSH)
- conditions: geometric mean, read-out: Ki (nM) geometric
measure-name: Ki (nM)
Give bare numbers, in nM.

The cases that follow already have their Ki on record.
COc1cc([C@@H](C)C(=O)N2CC[C@@]3(CCc4cc(-c5cn(C(F)F)c(C)n5)c(C)nc4N3)C2)c(F)cn1
0.9
COc1cc([C@@H](C)C(=O)N2CC[C@@]3(CCc4cc(-c5nccnc5C)c(C)nc4N3)C2)c(F)cn1
18
COc1cc([C@@H](C)C(=O)N2CC[C@@]3(CCc4cc(-c5nc(OC)n(C)n5)c(C)nc4N3)C2)c(F)cn1 (single isomer, unassigned)
0.78
COc1cc([C@@H](C)C(=O)N2CC[C@@]3(CCc4cc(-c5ncccn5)c(C)nc4N3)C2)c(C)cn1 (single isomer, unassigned)
1.4
COc1cc([C@@H](C)C(=O)N2CC[C@@]3(CCc4cc(-c5cnc(C)s5)c(C)nc4N3)C2)c(F)cn1
3.3

Alright, here's another compound for you.
Data request, read-out Ki, for `COc1cc([C@@H](C)C(=O)N2CC[C@@]3(CCc4cc(-c5nc(C(C)(C)C)cs5)c(C)nc4N3)C2)c(F)cn1`
15

----------
- system-under-test: α-melanocyte-stimulating hormone receptor (hMC4R) (Homo sapiens (Human))
- measurement-protocol: In vitro binding affinity assay using hMC4R (radioligand competition binding, [125I]-(Nle4, D-Phe7)-α-MSH)
- conditions: geometric mean, read-out: Ki (nM) geometric
measure-name: Ki (nM)
Numbers only, in nM.

Hi team, please reply with Ki for each item in this list.
1. COc1cc([C@@H](C)C(=O)N2CC[C@@]3(CCc4cc(-c5ccnnc5)c(C)nc4N3)C2)c(F)cn1
2. COc1cc([C@@H](C)C(=O)N2CC[C@@]3(CCc4cc(-c5nc(C)c(C)s5)c(C)nc4N3)C2)c(F)cn1
3. COc1cc([C@@H](C)C(=O)N2CC[C@@]3(CCc4cc(-c5nc(C(F)(F)F)cs5)c(C)nc4N3)C2)c(F)cn1

1: 14; 2: 2.8; 3: 12

Data request, read-out Ki, for `COc1cc([C@@H](C)C(=O)N2CC[C@@]3(CCc4cc(-c5cccc(C(F)(F)F)n5)c(C)nc4N3)C2)c(F)cn1`
4.7

----------
Please respond with reported Ki for every item in the list.
- system-under-test: α-melanocyte-stimulating hormone receptor (hMC4R) (Homo sapiens (Human), UniProt P32245)
- measurement-protocol: In vitro binding affinity assay using hMC4R (radioligand competition binding, [125I]-(Nle4, D-Phe7)-α-MSH)
- conditions: geometric mean, read-out: Ki (nM) geometric mean
- Method: The binding affinity of test compounds at the α-melanocyte-stimulating hormone receptor (hMC4R) was assessed using a radioligand competition binding assay. […] Compounds were solubilized in 100% dimethyl sulfoxide (DMSO) to a concentration of 30 mM. […] The exact concentration of radioligand used for each experiment was determined by liquid scintillation counting and adjusted if necessary. […] The raw data (expressed as counts per minute) were analyzed using ActivityBase (IDBS Data Management Software). […]
Numbers only, in nM.

Hi team, please reply with Ki for each item in this list.
1. Cc1nc2c(cc1-c1cnn(C)c1)CC[C@@]1(CCN(C(=O)Cc3ccc(F)cc3)C1)N2 (stereo in doubt)
2. COc1cc([C@@H](C)C(=O)N2CC[C@@]3(CCc4ccc(C)nc4N3)C2)c(Cl)cn1 (single isomer, unassigned)

1. 1.7
2. 1.1

Hi team, please reply with Ki for each item in this list.
1. Cc1nc2c(cc1-c1ncccn1)CC[C@@]1(CCN(C(=O)[C@H](C)c3cc(N(C)C)ncc3F)C1)N2 (single isomer, unassigned)
2. COc1cc([C@@H](C)C(=O)N2CC[C@@]3(CCc4ccc(C)nc4N3)C2)c(F)cn1 (single isomer, unassigned)
3. COc1cc([C@@H](C)C(=O)N2CC[C@@]3(CCc4cc(-c5ncccn5)c(C)nc4N3)C2)cc(OC)n1 (single isomer, unassigned)
4. COc1cc([C@@H](C)C(=O)N2CC[C@@]3(CCc4cc(-c5cn(C(F)(F)F)c(C)n5)c(C)nc4N3)C2)c(F)cn1
5. COc1cc([C@@H](C)C(=O)N2CC[C@@]3(CCc4cc(-c5ncc(C(F)F)cn5)c(C)nc4N3)C2)c(F)cn1

1. 6.6
2. 2.8
3. 0.67
4. 2
5. 2.2

----------
- system-under-test: α-melanocyte-stimulating hormone receptor (hMC4R) (Homo sapiens (Human), UniProt P32245)
- measurement-protocol: In vitro binding affinity assay using hMC4R (radioligand competition binding, [125I]-(Nle4, D-Phe7)-α-MSH)
- conditions: geometric mean, read-out: Ki (nM) geometric
Please respond with reported Ki for every item in the list.
Numbers only, in nM.

The cases that follow already have their Ki on record.
COc1cc([C@@H](C)C(=O)N2CC[C@@]3(CCc4cc(-c5nc(C(F)F)n(C)n5)c(C)nc4N3)C2)c(Cl)cn1
0.4
COc1cc([C@@H](C)C(=O)N2CC[C@@]3(CCc4cc(-c5cccc(-c6cnco6)c5)c(C)nc4N3)C2)c(F)cn1
85

Alright, here's another compound for you.
Report Ki for `COc1cc([C@@H](C)C(=O)N2CC[C@@]3(CCc4cc(-c5csc(C6CC6)n5)c(C)nc4N3)C2)c(F)cn1` tested on α-melanocyte-stimulating hormone receptor (hMC4R) (Homo sapiens (Human), UniProt P32245).
3.6

----------
- system-under-test: UniProtKB P32245
- measurement-protocol: In vitro binding affinity assay using hMC4R (radioligand competition binding, [125I]-(Nle4, D-Phe7)-α-MSH)
- conditions: geometric mean, read-out: Ki (nM) geometric mean
measure-name: Ki (nM)
One number for each entry, in nM.

The cases that follow already have their Ki on record.
COc1cc([C@@H](C)C(=O)N2CC[C@@]3(CCc4ccc(C)nc4N3)C2)nc(C)n1 (single isomer, unassigned) [Example 23]
21
COc1cc([C@@H](C)C(=O)N2CC[C@]3(CCc4cc(-c5ncccn5)c(C)nc4N3)C2)c(F)cn1 [Example 29]
11
COc1cc([C@@H](C)C(=O)N2CC[C@@]3(CCc4cc(-c5ncc(C(F)(F)F)cc5F)c(C)nc4N3)C2)c(F)cn1 [Example 68]
35

Hi team, please reply with Ki for each item in this list.
1. COc1cc([C@@H](C)C(=O)N2CC[C@@]3(CCc4cc(-c5cnc(C6CC6)cn5)c(C)nc4N3)C2)c(F)cn1 [Example 70]
2. Cc1nc(OC(F)F)cc([C@@H](C)C(=O)N2CC[C@@]3(CCc4cc(-c5ncccn5)c(C)nc4N3)C2)n1 (single isomer, unassigned) [Example 44]
3. COc1cc([C@@H](C)C(=O)N2CCC3(CCc4cc(-c5coc(C)n5)c(C)nc4N3)C2)c(F)cn1 (mixture of isomers) [Example 33]
4. Cc1nc2c(cc1-c1ncccn1)CC[C@@]1(CCN(C(=O)Cc3cc(F)c(F)c(F)c3)C1)N2 [Example 54]
5. [2H]c1cc([2H])nc(-c2cc3c(nc2C)N[C@@]2(CC3)CCN(C(=O)[C@H](C)c3cc(OC)ncc3F)C2)n1 [Example 18]
6. COc1cc([C@@H](C)C(=O)N2CC[C@@]3(CCc4cc(-c5ncccn5)c(C)nc4N3)C2)c(F)cn1 [Example 14]

1: 40; 2: 54; 3: 2.6; 4: 0.93; 5: 0.18; 6: 0.46

Hi team, please reply with Ki for each item in this list.
1. Cc1nc2c(cc1-c1ncccn1)CC[C@@]1(CCN(C(=O)[C@H](C)c3ccc(F)c(F)c3)C1)N2 (single isomer, unassigned) [Example 50]
2. COc1cc([C@@H](C)C(=O)N2CC[C@@]3(CCc4cc(-c5cc(C(F)(F)F)ncn5)c(C)nc4N3)C2)c(F)cn1 [Example 72]
3. COc1cc([C@@H](C)C(=O)N2CC[C@@]3(CCc4cc(-c5ncccn5)c(C)nc4N3)C2)c(C(F)(F)F)cn1 (single isomer, unassigned) [Example 40]
4. Cc1nc2c(cc1-c1nnn(C)n1)CC[C@@]1(CCN(C(=O)Cc3ccc(C(F)(F)F)cc3)C1)N2 (single isomer, unassigned) [Example 65]
5. COc1cc([C@@H](C)C(=O)N2CC[C@@]3(CCc4cc(-c5nc(C(F)(F)F)n(C)n5)c(C)nc4N3)C2)c(F)cn1 (single isomer, unassigned) [Example 92]
6. COc1cc([C@@H](C)C(=O)N2CC[C@@]3(CCc4cc(-c5ncccn5)c(C)nc4N3)C2)c(Cl)cn1 [Example 15]

1. 0.81
2. 3.3
3. 150
4. 1.7
5. 0.45
6. 0.25

These entries and their values trace back to patent US20250084084A1.
